Source: PubChem BioAssay AID248

- Test system: L1210 leukemia ip in BDF1 mice, survival T/C
- PROCEDURE SUMMARY: NCI In Vivo Anticancer Drug Screen. Data for tumor model L1210 Leukemia (intraperitoneal) in B6D2F1 (BDF1) mice
- CONDITIONS USED: endpoint: mean survival time; dose: 50.0 mg/kg/injection; schedule: Q01DX009 (ip); vehicle: Klucel (hydroxypropylcellulose) (HPC); higher = longer survival
Toxic doses and inconclusive results are not listed.
The entries below are paired with their reported T/C.
ENDPOINT LABEL: T/C

[[record]]
compound = "CCc1ccc(NC(=O)NCCCl)cc1"
endpoint_label = "T/C"
measured = "89 % of control"

[[record]]
compound = "CC(=O)Nc1ccc(OC(=O)Nc2c(C)cccc2Cl)cc1"
endpoint_label = "T/C"
measured = "95 % of control"

[[record]]
compound = "CN(C)Cc1cccc2ccccc12"
endpoint_label = "T/C"
measured = "95 % of control"

[[record]]
compound = "COc1ccc2c(c1Oc1ccc([N+](=O)[O-])cc1[N+](=O)[O-])C13CCN(C)C(C2)C1CCC1(C3)OCCO1 (centres undefined)"
endpoint_label = "T/C"
measured = "101 % of control"

[[record]]
compound = "Cc1n(CCBr)c([N+](=O)[O-])c[n+]1C1N=C(c2ccccc2)c2cc(Cl)ccc2N(C)C1=O (centres undefined)"
endpoint_label = "T/C"
measured = "89 % of control"

[[record]]
compound = "CCOC(=O)c1cnc(SC)nc1Nc1c(Br)cc(Br)cc1Br"
endpoint_label = "T/C"
measured = "105 % of control"

[[record]]
compound = "CCN(CC)c1ccc(C(=C(c2ccc(N(CC)CC)cc2)c2ccc(N(CC)CC)cc2)c2ccc(N(CC)CC)cc2)cc1"
endpoint_label = "T/C"
measured = "88 % of control"

[[record]]
compound = "Cc1nc(Cl)c(CO)c(CO)c1O"
endpoint_label = "T/C"
measured = "92 % of control"

[[record]]
compound = "CCCC1(C)COB(c2ccc(C)cc2)OC1"
endpoint_label = "T/C"
measured = "105 % of control"

[[record]]
compound = "COc1ccc(/C(=N/Nc2ccccc2)C(C)C(O)(C(F)(F)F)C(F)(F)F)cc1 (centres undefined)"
endpoint_label = "T/C"
measured = "91 % of control"

[[record]]
compound = "Cc1ccc(Cl)cc1NC(=O)c1cccc(C(=O)Nc2cc(Cl)ccc2C)c1"
endpoint_label = "T/C"
measured = "91 % of control"

[[record]]
compound = "CC1(C)NC(=O)C(/C=C/c2ccccc2)O1 (centres undefined)"
endpoint_label = "T/C"
measured = "100 % of control"

[[record]]
compound = "CCNP(=O)(CCl)NC12CC3CC(CC(C3)C1)C2 (centres undefined)"
endpoint_label = "T/C"
measured = "91 % of control"

[[record]]
compound = "COc1ccc(Cl)cc1N1C(=O)C2C(C1=O)C1(Cl)C(Cl)=C(Cl)C2(Cl)C1(Cl)Cl (centres undefined)"
endpoint_label = "T/C"
measured = "91 % of control"

[[record]]
compound = "CCCCOC(=O)C1CCCCC1C(=O)OCCCC (centres undefined)"
endpoint_label = "T/C"
measured = "102 % of control"

[[record]]
compound = "COc1ccccc1NC(N)=S"
endpoint_label = "T/C"
measured = "97 % of control"

[[record]]
compound = "CS(=O)(=O)OCCN(CCOS(C)(=O)=O)c1ccc(C=Nc2ccc(-c3csc(-c4ccc(Br)cc4)n3)cc2)cc1"
endpoint_label = "T/C"
measured = "114 % of control"

[[record]]
compound = "S=c1[nH]c2ccccc2c2ccccc12"
endpoint_label = "T/C"
measured = "96 % of control"

[[record]]
compound = "O=C1N(Cl)C(=O)C(c2ccccc2)(c2ccc(F)cc2)N1Cl (centres undefined)"
endpoint_label = "T/C"
measured = "94 % of control"

[[record]]
compound = "CC(C)C(C#N)c1ccccc1 (centres undefined)"
endpoint_label = "T/C"
measured = "97 % of control"

[[record]]
compound = "COC(=O)c1cccc(N=NN(C)C)c1"
endpoint_label = "T/C"
measured = "105 % of control"

[[record]]
compound = "CC(C)(C)c1ccc(CN2CCN(C(c3ccccc3)c3ccc(Cl)cc3)CC2)cc1 (centres undefined)"
endpoint_label = "T/C"
measured = "91 % of control"

[[record]]
compound = "CN1C(=O)CSC1=S"
endpoint_label = "T/C"
measured = "87 % of control"

[[record]]
compound = "C=CCNC(=S)Nc1ccc(C)cc1"
endpoint_label = "T/C"
measured = "95 % of control"


* * *

- Tested on: L1210 leukemia ip in BDF1 mice, survival T/C
- PROCEDURE SUMMARY: NCI In Vivo Anticancer Drug Screen. Data for tumor model L1210 Leukemia (intraperitoneal) in B6D2F1 (BDF1) mice
- CONDITIONS USED: endpoint: mean survival time; dose: 50.0 mg/kg/injection; schedule: Q01DX001 (ip); vehicle: saline; higher = longer survival
Toxic doses and inconclusive results are not listed.
Reported T/C is given for each of the following molecules.
ENDPOINT LABEL: T/C

[[record]]
molecule = "C[CH2][Ge]1([CH2]C)[CH2]CC2(CCN(CCCN(C)C)C2)C[CH2]1"
measured = "96 % of control"

[[record]]
molecule = "NC(=S)N/N=C\\c1cn(Cc2ccccc2)c2ccccc12"
measured = "95 % of control"

[[record]]
molecule = "OC(CN1CCCCC1)c1nc2ccccc2c2ccccc12 (stereo not given)"
measured = "102 % of control"

[[record]]
molecule = "Cc1cc(C)c(CCN(C)C)c(C)c1C"
measured = "103 % of control"

[[record]]
molecule = "CN(C)c1ccc(C(N)C(=O)O)cc1 (stereo not given)"
measured = "101 % of control"

[[record]]
molecule = "O=S(=O)(Cc1ccc(Br)cc1)Cc1ccc(Br)cc1"
measured = "102 % of control"

[[record]]
molecule = "CCC(=O)c1ccc(OC(C)=O)c(OC(C)=O)c1"
measured = "101 % of control"

[[record]]
molecule = "CC(C)(C)C1CCC(NN)CC1 (stereo not given)"
measured = "92 % of control"

[[record]]
molecule = "COC1OCCCC1OC(=O)c1ccccc1 (stereo not given)"
measured = "109 % of control"

[[record]]
molecule = "CC(=O)C(c1ccc(N(C)C)cc1)c1ccc(N(C)C)cc1"
measured = "101 % of control"


* * *

- Test system: L1210 leukemia ip in BDF1 mice, survival T/C
- PROCEDURE SUMMARY: NCI In Vivo Anticancer Drug Screen. Data for tumor model L1210 Leukemia (intraperitoneal) in B6D2F1 (BDF1) mice
- CONDITIONS USED: endpoint: mean survival time; dose: 400.0 mg/kg/injection; schedule: Q04DX003 (ip); vehicle: saline
Inconclusive results and toxic doses are left out. Cut-off read from the data, not from the text of the source: active = T/C of 150% or more; inactive = T/C below 125%.
Possible outcomes: active, inactive

[[record]]
molecule = "COC(CN)C(Cl)(Cl)Cl (centres undefined)"
cat = "inactive"

[[record]]
molecule = "O=C(O)C1CC(Br)C2CC1C(=O)O2 (centres undefined)"
cat = "inactive"

[[record]]
molecule = "OCC(O)COc1cccc2cccnc12 (centres undefined)"
cat = "inactive"

[[record]]
molecule = "CCOC(=O)n1ncnc1N"
cat = "inactive"

[[record]]
molecule = "COc1cccc(CO)c1-c1c(CO)cccc1OC"
cat = "inactive"

[[record]]
molecule = "Cc1ccc(OS(=O)(=O)C2CC2c2ccccc2)cc1 (centres undefined)"
cat = "inactive"

[[record]]
molecule = "CN(C)C(=O)c1cccc(N)c1"
cat = "inactive"

[[record]]
molecule = "CC(CS(=O)(=O)O)N1CCN(CCO)CC1 (centres undefined)"
cat = "inactive"

[[record]]
molecule = "O=C(O)C1CCC[N-]C1.O=C(O)C1CCC[N-]C1.O=C(O)C1CCC[N-]C1.O=C(O)C1CCC[N-]C1.[Cl][Rh][Cl] (centres undefined)"
cat = "inactive"

[[record]]
molecule = "CN(C)C(=O)NN1CCCCCC1"
cat = "inactive"

[[record]]
molecule = "O=[N+]([O-])c1ccc(C#[C][Hg][C]#Cc2ccc([N+](=O)[O-])cc2)cc1"
cat = "inactive"

[[record]]
molecule = "[O-][N+]1=CCCC1"
cat = "inactive"

[[record]]
molecule = "O=C(O)Cc1sc(=O)[nH]c1O"
cat = "inactive"

[[record]]
molecule = "CCOC(=O)C(=CC(CC)C(=O)OCC)C(=O)OCC (centres undefined) (tested in a mixture with another compound)"
cat = "inactive"

[[record]]
molecule = "Cc1ccc(S(=O)(=O)CC(=O)NC(N)=O)cc1"
cat = "inactive"

[[record]]
molecule = "COc1ccc2c(C(=O)CCC(=O)O)cccc2c1"
cat = "inactive"

[[record]]
molecule = "COc1ccc(CNCC(=O)O)cc1"
cat = "inactive"

[[record]]
molecule = "CSCC(C)O (centres undefined)"
cat = "inactive"

[[record]]
molecule = "O=S(=O)(CC(Cl)c1ccccc1)c1ccc(F)cc1 (centres undefined)"
cat = "inactive"

[[record]]
molecule = "CN(C)C1C(=O)C(C(=O)NCNC(CCS(C)=O)C(=O)O)=C(O)C2(O)C(=O)C3=C(O)c4c(O)cccc4C(C)(O)C3CC12 (centres undefined)"
cat = "inactive"

[[record]]
molecule = "[O]=[Hf]=[O]"
cat = "inactive"

[[record]]
molecule = "O=C(Nc1ccc(NC(=O)Nc2ccc(C3=NCCCN3)cc2)cc1)Nc1ccc(C2=NCCCN2)cc1"
cat = "active"

[[record]]
molecule = "NC(=O)CNCCS(=O)(=O)O"
cat = "inactive"

[[record]]
molecule = "O=C(O)c1nccc2c([N+](=O)[O-])cccc12"
cat = "inactive"

[[record]]
molecule = "COc1cc([N+](=O)[O-])c(C)cc1NCc1ccc(OC)c(OC)c1"
cat = "inactive"

[[record]]
molecule = "CC(=O)Nc1ccc(P(=O)(O)O)cc1[N+](=O)[O-]"
cat = "inactive"

[[record]]
molecule = "O=[N+]([O-])c1ccc(O)c(I)c1"
cat = "inactive"

[[record]]
molecule = "CC1=NC(C(=O)O)C(=O)O1 (centres undefined)"
cat = "inactive"

[[record]]
molecule = "C[C@H](CN1CC(=O)NC(=O)C1)N1CC(=O)NC(=O)C1"
cat = "active"

[[record]]
molecule = "CCOP(=O)(CCP(=O)(CCP(=O)(OCC)OCC)CCP(=O)(OCC)OCC)OCC"
cat = "inactive"

[[record]]
molecule = "CCCP(CCC)N(CC)CC"
cat = "inactive"

[[record]]
molecule = "BrC12CCC(CC1)C1(Br)CCC2CC1"
cat = "inactive"

[[record]]
molecule = "O=C(O)CCC(=O)c1cccc2ccccc12"
cat = "inactive"

[[record]]
molecule = "C=C(C)C1CC=C(C)CC1 (centres undefined)"
cat = "inactive"

